system.name: Gonadotropin-releasing hormone receptor (Rattus norvegicus, UniProt P30969)
Sequence (P30969 whole entry): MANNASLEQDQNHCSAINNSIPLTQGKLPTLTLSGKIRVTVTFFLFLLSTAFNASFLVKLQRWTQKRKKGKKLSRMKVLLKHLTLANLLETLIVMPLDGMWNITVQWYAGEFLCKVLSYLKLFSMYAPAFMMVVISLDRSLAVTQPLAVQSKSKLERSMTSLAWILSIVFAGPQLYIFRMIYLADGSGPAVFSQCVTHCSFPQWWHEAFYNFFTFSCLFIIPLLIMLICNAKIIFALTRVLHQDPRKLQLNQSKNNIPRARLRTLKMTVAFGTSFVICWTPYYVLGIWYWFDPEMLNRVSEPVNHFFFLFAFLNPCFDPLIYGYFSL
method: Inhibition of [125I]buserelin binding to rat pituitary Gonadotropin-releasing hormone receptor, in the presence of 0.1% bovine serum albumin.
In plain terms, low IC50, meaning strictly below 200 pM, gives fulfilled, and everything else gives not fulfilled.

>  <compound>
Cc1cc(C)cc(-c2[nH]c3ccc(C(=O)N(C(C)C)C(C)C)cc3c2CCNCCCCc2ccc(NS(C)(=O)=O)cc2)c1

>  <system.name>
Gonadotropin-releasing hormone receptor (Rattus norvegicus, UniProt P30969)

>  <discrete.label>
not fulfilled

$$$$
>  <compound>
CCOC(=O)C(C)c1ccc2[nH]c(-c3cc(C)cc(C)c3)c(CCNCCCCc3ccc(NS(C)(=O)=O)cc3)c2c1 (stereo unspecified)

>  <system.name>
Gonadotropin-releasing hormone receptor (Rattus norvegicus, UniProt P30969)

>  <discrete.label>
not fulfilled

$$$$
>  <compound>
CCOC(=O)C(C)(C)c1ccc2[nH]c(-c3cc(C)cc(C)c3)c(CCNCCCCc3ccc(NS(C)(=O)=O)cc3)c2c1

>  <system.name>
Gonadotropin-releasing hormone receptor (Rattus norvegicus, UniProt P30969)

>  <discrete.label>
not fulfilled

$$$$
>  <compound>
Cc1cc(C)cc(-c2[nH]c3ccc(C(=O)N(CC(C)C)CC(C)C)cc3c2CCNCCCCc2ccc(NS(C)(=O)=O)cc2)c1

>  <system.name>
Gonadotropin-releasing hormone receptor (Rattus norvegicus, UniProt P30969)

>  <discrete.label>
not fulfilled

$$$$
>  <compound>
Cc1cc(C)cc(-c2[nH]c3ccc(CC(=O)N(C)C)cc3c2CCNCCCCc2ccc(NS(C)(=O)=O)cc2)c1

>  <system.name>
Gonadotropin-releasing hormone receptor (Rattus norvegicus, UniProt P30969)

>  <discrete.label>
fulfilled

$$$$
>  <compound>
Cc1cc(C)cc(-c2[nH]c3ccc(C(C)(C)C(=O)N4CCOCC4)cc3c2CCNCCCCc2ccc(NS(C)(=O)=O)cc2)c1

>  <system.name>
Gonadotropin-releasing hormone receptor (Rattus norvegicus, UniProt P30969)

>  <discrete.label>
fulfilled

$$$$
>  <compound>
Cc1cc(C)cc(-c2[nH]c3ccc(C(=O)N4C5CCC4CC5)cc3c2CCNCCCCc2ccc(NS(C)(=O)=O)cc2)c1

>  <system.name>
Gonadotropin-releasing hormone receptor (Rattus norvegicus, UniProt P30969)

>  <discrete.label>
not fulfilled

$$$$
>  <compound>
CCN(CC)C(=O)c1ccc2[nH]c(-c3cc(C)cc(C)c3)c(CCNCCCCc3ccc(O)cc3)c2c1

>  <system.name>
Gonadotropin-releasing hormone receptor (Rattus norvegicus, UniProt P30969)

>  <discrete.label>
not fulfilled

$$$$
>  <compound>
CCN(C(=O)c1ccc2[nH]c(-c3cc(C)cc(C)c3)c(CCNCCCCc3ccc(NS(C)(=O)=O)cc3)c2c1)C(C)(C)C

>  <system.name>
Gonadotropin-releasing hormone receptor (Rattus norvegicus, UniProt P30969)

>  <discrete.label>
not fulfilled

$$$$
>  <compound>
Cc1cc(C)cc(-c2[nH]c3ccc(CC(=O)N4C(C)CCC4C)cc3c2CCNCCCCc2ccc(NS(C)(=O)=O)cc2)c1 (stereo unspecified)

>  <system.name>
Gonadotropin-releasing hormone receptor (Rattus norvegicus, UniProt P30969)

>  <discrete.label>
fulfilled

$$$$
>  <compound>
CCCN(CCC)C(=O)C(C)(C)c1ccc2[nH]c(-c3cc(C)cc(C)c3)c(CCNCCCCc3ccc(NS(C)(=O)=O)cc3)c2c1

>  <system.name>
Gonadotropin-releasing hormone receptor (Rattus norvegicus, UniProt P30969)

>  <discrete.label>
not fulfilled

$$$$
>  <compound>
Cc1cc(C)cc(-c2[nH]c3ccc(C(C)(C)C(=O)N(C)C)cc3c2CCNCCCCc2ccc(NS(C)(=O)=O)cc2)c1

>  <system.name>
Gonadotropin-releasing hormone receptor (Rattus norvegicus, UniProt P30969)

>  <discrete.label>
fulfilled

$$$$

* * *

system.name: Gonadotropin-releasing hormone receptor (Rattus norvegicus, UniProt P30969)
method: Inhibition of [125I]buserelin binding to rat pituitary Gonadotropin-releasing hormone receptor, in the absence of bovine serum albumin (BSA)
// IC50 lookup, one value per entry

>  <molecule>
Cc1cc(C)cc(-c2[nH]c3ccc(C(C)(C)C(=O)N4C(C)CCC4C)cc3c2CCNCCCCc2ccc(NS(C)(=O)=O)cc2)c1 (centres undefined)

>  <IC50>
3 nM

$$$$
>  <molecule>
Cc1cc(C)cc(-c2[nH]c3ccc(C(=O)N(C)C)cc3c2CCNCCCCc2ccc(NS(C)(=O)=O)cc2)c1

>  <IC50>
2 nM

$$$$
>  <molecule>
CCN(CC)C(=O)Cc1ccc2[nH]c(-c3cc(C)cc(C)c3)c(CCNCCCCc3ccc(NS(C)(=O)=O)cc3)c2c1

>  <IC50>
3 nM

$$$$
>  <molecule>
Cc1cc(C)cc(-c2[nH]c3ccc(C(=O)N4CCOCC4)cc3c2CCNCCCCc2ccc(NS(C)(=O)=O)cc2)c1

>  <IC50>
2 nM

$$$$

* * *

system.name: Gonadotropin-releasing hormone receptor (Rattus norvegicus, UniProt P30969)
method: Inhibition GnRH-stimulated luteinizing hormone (LH) release from rat pituitary cells
Type: functional, cell-based, Pituitary gland cell
Classes based on IC50: bucket A = under 100 nM, bucket B = from 100 nM up to 500 nM, bucket C = 500 nM and over

>  <chemical.structure>
CCN(CC)C(=O)C(C)(C)c1ccc2[nH]c(-c3cc(C)cc(C)c3)c(CCNCCCCc3ccc(NS(C)(=O)=O)cc3)c2c1

>  <discrete.label>
bucket A

$$$$
>  <chemical.structure>
CCOC(=O)Cc1ccc2[nH]c(-c3cc(C)cc(C)c3)c(CCNCCCCc3ccc(NS(C)(=O)=O)cc3)c2c1

>  <discrete.label>
bucket C

$$$$
>  <chemical.structure>
CCOC(=O)c1ccc2[nH]c(-c3cc(C)cc(C)c3)c(CCNCCCCc3ccc(NS(C)(=O)=O)cc3)c2c1

>  <discrete.label>
bucket C

$$$$
>  <chemical.structure>
CCN(CC)C(=O)Cc1ccc2[nH]c(-c3cc(C)cc(C)c3)c(CCNCCCCc3ccc(NS(C)(=O)=O)cc3)c2c1

>  <discrete.label>
bucket B

$$$$
>  <chemical.structure>
Cc1cc(C)cc(-c2[nH]c3ccccc3c2CCNCCCCc2ccc(O)cc2)c1

>  <discrete.label>
bucket C

$$$$
>  <chemical.structure>
CCN(CC)C(=O)c1ccc2[nH]c(-c3cc(C)cc(C)c3)c(CCNCCCCc3ccc(O)cc3)c2c1

>  <discrete.label>
bucket C

$$$$
>  <chemical.structure>
CCNC(=O)c1ccc2[nH]c(-c3cc(C)cc(C)c3)c(CCNCCCCc3ccc(NS(C)(=O)=O)cc3)c2c1

>  <discrete.label>
bucket C

$$$$
>  <chemical.structure>
Cc1cc(C)cc(-c2[nH]c3ccc(C(=O)N(CC(C)C)CC(C)C)cc3c2CCNCCCCc2ccc(NS(C)(=O)=O)cc2)c1

>  <discrete.label>
bucket A

$$$$
>  <chemical.structure>
Cc1cc(C)cc(-c2[nH]c3ccc(C(C)(C)C(=O)N4CCCC4)cc3c2CCNCCCCc2ccc(NS(C)(=O)=O)cc2)c1

>  <discrete.label>
bucket A

$$$$
>  <chemical.structure>
Cc1cc(C)cc(-c2[nH]c3ccc(C(=O)N4C5CCC4CC5)cc3c2CCNCCCCc2ccc(NS(C)(=O)=O)cc2)c1

>  <discrete.label>
bucket B

$$$$
>  <chemical.structure>
CCCCN(CC)C(=O)c1ccc2[nH]c(-c3cc(C)cc(C)c3)c(CCNCCCCc3ccc(NS(C)(=O)=O)cc3)c2c1

>  <discrete.label>
bucket B

$$$$
>  <chemical.structure>
CCN(C(=O)c1ccc2[nH]c(-c3cc(C)cc(C)c3)c(CCNCCCCc3ccc(NS(C)(=O)=O)cc3)c2c1)C(C)C

>  <discrete.label>
bucket B

$$$$
>  <chemical.structure>
Cc1cc(C)cc(-c2[nH]c3ccc(C(=O)N4CCCCC4)cc3c2CCNCCCCc2ccc(NS(C)(=O)=O)cc2)c1

>  <discrete.label>
bucket B

$$$$
>  <chemical.structure>
Cc1cc(C)cc(-c2[nH]c3ccc(C(=O)N4CCOCC4)cc3c2CCNCCCCc2ccc(NS(C)(=O)=O)cc2)c1

>  <discrete.label>
bucket B

$$$$
>  <chemical.structure>
Cc1cc(C)cc(-c2[nH]c3ccc(C(=O)N(C)C)cc3c2CCNCCCCc2ccc(O)cc2)c1

>  <discrete.label>
bucket C

$$$$
